All figures here come from patent US8324223B2.

Test system: wild type HIV-1
ASSAY PROTOCOL: microbe, parasite or virus in culture
Assay type: cell-based, human immunodeficiency virus type 1 (HIV-1)
CONDITIONS USED: Human immunodeficiency virus 1, Hela-JC53, read-out: EC50 WT (nM)
READOUT LABEL: EC50

# QUERY SMILES, EC50
measured = [
    ("Cc1cc(C#N)cc(C)c1Oc1nc(Nc2ccc(C#N)cc2)nc2c(C)csc12", "< 10 nM"),
    ("Cc1cc(C)c(Oc2nc(Nc3ccc(C#N)cc3)nc3sccc23)c(C)c1", "< 10 nM"),
    ("Cc1cc(C)c(Nc2nc(Nc3ccc(C#N)cc3)nc3c(C)csc23)c(C)c1", "< 10 nM"),
    ("Cc1cc(C)c(Nc2nc(Nc3ccc(C#N)cc3)nc3ccsc23)c(C)c1", "< 10 nM"),
    ("Cc1cc(C#N)cc(C)c1Oc1nc(Nc2ccc(C#N)cc2)nc2ccsc12", "< 10 nM"),
]

Input line: Param request: EC50 | system wild type HIV-1 | item Cc1cc(C)c(Oc2nc(Nc3ccc(C#N)cc3)nc3c(C)csc23)c(C)c1
Output line: 10 to 100 nM

Input line: Param request: EC50 | system wild type HIV-1 | item Cc1cc(C#N)cc(C)c1Oc1nc(Nc2ccc(C#N)cc2)nc2sccc12
Output line: < 10 nM

Input line: Param request: EC50 | system wild type HIV-1 | item Cc1cc(C)c(Oc2nc(Nc3ccc(C#N)cc3)nc3sc4c(c23)CCCC4)c(C)c1
Output line: 10 to 100 nM

Input line: Param request: EC50 | system wild type HIV-1 | item Cc1cc(C)c(Oc2nc(Nc3ccc(C#N)cc3)nc3ccsc23)c(C)c1
Output line: < 10 nM
